- measurement.notes: Clinical pharmacokinetics, plasma LC/MS-MS (NCT02635672)
- Format: in vivo, human
- study.conditions: human, plasma, intravenous, 22.5 mg, subject 3; dose lowered from 30 to 22.5 mg; not included in average; read-out: Multiple dose t1/2 (converted)
measured.endpoint: half-life (min)
Write the number in min without appending the unit.

Incoming: // query half-life value for entry COc1cc(F)ccc1-c1cc(Nc2cc(CS(C)(=N)=O)ccn2)ncc1F (stereo not shown)
Outgoing: 152

---

- Test system: panel of 35 human lymphoma cell lines
- measurement.notes: CellTiter-Glo cell viability, lymphoma cell line panel (OmniScreen)
- Assay type: cell-based
- study.conditions: Homo sapiens; lymphoma cell lines; media fu = 66.6%; read-out: mean unbound IC50 for cytotoxicity
measured.endpoint: IC50

Incoming: // query IC50 value for entry COc1cc(F)ccc1-c1cc(Nc2cc(CS(C)(=N)=O)ccn2)ncc1F (stereo not shown) [enitociclib]
Outgoing: ~67 nM

---

- Test system: panel of 35 human lymphoma cell lines
- measurement.notes: CellTiter-Glo cell viability, lymphoma cell line panel (OmniScreen)
- Format: cell-based
- study.conditions: range over panel of 35 human lymphoma cell lines; read-out: IC50 (cell cytotoxicity)
measured.endpoint: IC50

Incoming: // query IC50 value for entry COc1cc(F)ccc1-c1cc(Nc2cc(CS(C)(=N)=O)ccn2)ncc1F (stereo not shown)
Outgoing: 43 to 152 nM

---

- Test system: SU-DHL-10
- measurement.notes: CellTiter-Glo cell viability, SU-DHL-10
- Type: cell-based
- study.conditions: Homo sapiens, SU-DHL10
measured.endpoint: pIC50
Give only the number. pIC50 is defined as minus log10 of concentration in molar units.

Incoming: // query pIC50 value for entry COc1cc(F)ccc1-c1cc(Nc2cc(CS(C)(=N)=O)ccn2)ncc1F (stereo not shown)
Outgoing: 7.13

---

- measurement.notes: Clinical pharmacokinetics, plasma LC/MS-MS (NCT02635672)
- Format: in vivo, human
- study.conditions: human, plasma, iv, 30 mg, patients, 30 mg i.v. once weekly; read-out: Cmax
measured.endpoint: Cmax (nM)
Write the number in nM without appending the unit.

Incoming: // query Cmax value for entry COc1cc(F)ccc1-c1cc(Nc2cc(CS(C)(=N)=O)ccn2)ncc1F (stereo not shown)
Outgoing: 1750

---

- measurement.notes: Fraction unbound in cell media
- Type: in vitro ADME
measured.endpoint: fraction unbound
Write the value as a bare number.

Incoming: // query fraction unbound value for entry COc1cc(F)ccc1-c1cc(Nc2cc(CS(C)(=N)=O)ccn2)ncc1F (stereo not shown)
Outgoing: 0.666

---

- measurement.notes: Clinical pharmacokinetics, plasma LC/MS-MS (NCT02635672)
- Assay type: in vivo, human
- study.conditions: human, plasma, intravenous, 22.5 mg, subject 3; dose lowered from 30 to 22.5 mg; not included in average; read-out: Multiple dose C max
measured.endpoint: Cmax

Incoming: // query Cmax value for entry COc1cc(F)ccc1-c1cc(Nc2cc(CS(C)(=N)=O)ccn2)ncc1F (stereo not shown)
Outgoing: 592 ng/mL

---

- System: SU-DHL-4
- measurement.notes: CellTiter-Glo cell viability, SU-DHL-4
- Assay type: cell-based
- study.conditions: Homo sapiens
measured.endpoint: IC50
Quick note: number first, unit second.

Incoming: // query IC50 value for entry COc1cc(F)ccc1-c1cc(Nc2cc(CS(C)(=N)=O)ccn2)ncc1F (stereo not shown) [enitociclib]
Outgoing: 43 nM

---

- Tested on: MYC mRNA in whole blood
- measurement.notes: MYC mRNA in whole blood of patients (RNA-seq, PK/PD modeling)
- Type: in vivo, human
- study.conditions: Homo sapiens; PK/PD indirect response model, pooled patient blood data; read-out: model estimated unbound IC50 for MYC mRNA
measured.endpoint: IC50

Incoming: Lab note: need IC50 with MYC mRNA in whole blood for entry COc1cc(F)ccc1-c1cc(Nc2cc(CS(C)(=N)=O)ccn2)ncc1F (stereo not shown) , please look it up.
Outgoing: 17.4 to 22 nM

---

- measurement.notes: Clinical pharmacokinetics, plasma LC/MS-MS (NCT02635672)
- Format: in vivo, human
- study.conditions: human, plasma, intravenous, 22.5 mg, subject 3; dose lowered from 30 to 22.5 mg; not included in average; read-out: Multiple dose tmax
measured.endpoint: Tmax (min)
Write the number in min without appending the unit.

Incoming: // query Tmax value for entry COc1cc(F)ccc1-c1cc(Nc2cc(CS(C)(=N)=O)ccn2)ncc1F (stereo not shown)
Outgoing: 29

---

- measurement.notes: Fraction unbound (fu) used for patient unbound Cmax
- Format: in vitro ADME
- study.conditions: human, plasma; patients
measured.endpoint: fraction unbound
Write the value as a bare number.

Incoming: // query fraction unbound value for entry COc1cc(F)ccc1-c1cc(Nc2cc(CS(C)(=N)=O)ccn2)ncc1F (stereo not shown) [enitociclib]
Outgoing: 0.0665

---

- measurement.notes: Clinical pharmacokinetics, plasma LC/MS-MS (NCT02635672)
- Format: in vivo, human
- study.conditions: human, plasma, intravenous, 30 mg, patients treated with multiple doses; read-out: mean t1/2 (converted)
- Method: Fifteen patients with refractory or relapsed DH-DLBCL or other MYC+ NHL were treated with enitociclib (30 mg, 21-day cycle, once weekly x3) as a 30-minute intravenous infusion on study days 1, 8, and 15 (NCT02635672). Longitudinal gene expression levels were analyzed by RNA-seq, and enitociclib plasma concentrations were measured using LC/MS-MS. […] All pharmacokinetic parameters were calculated by noncompartmental methods as described previously ([36]) using WinNonlin v5.3 (Certara LP). […]
measured.endpoint: half-life

Incoming: // query half-life value for entry COc1cc(F)ccc1-c1cc(Nc2cc(CS(C)(=N)=O)ccn2)ncc1F (stereo not shown) [enitociclib]
Outgoing: 5.56 h
